Numbers sourced from paper PMC7224190.

Biological target: PRMT7 (Homo sapiens, UniProt Q9NVM4)
Sequence (Q9NVM4 whole entry): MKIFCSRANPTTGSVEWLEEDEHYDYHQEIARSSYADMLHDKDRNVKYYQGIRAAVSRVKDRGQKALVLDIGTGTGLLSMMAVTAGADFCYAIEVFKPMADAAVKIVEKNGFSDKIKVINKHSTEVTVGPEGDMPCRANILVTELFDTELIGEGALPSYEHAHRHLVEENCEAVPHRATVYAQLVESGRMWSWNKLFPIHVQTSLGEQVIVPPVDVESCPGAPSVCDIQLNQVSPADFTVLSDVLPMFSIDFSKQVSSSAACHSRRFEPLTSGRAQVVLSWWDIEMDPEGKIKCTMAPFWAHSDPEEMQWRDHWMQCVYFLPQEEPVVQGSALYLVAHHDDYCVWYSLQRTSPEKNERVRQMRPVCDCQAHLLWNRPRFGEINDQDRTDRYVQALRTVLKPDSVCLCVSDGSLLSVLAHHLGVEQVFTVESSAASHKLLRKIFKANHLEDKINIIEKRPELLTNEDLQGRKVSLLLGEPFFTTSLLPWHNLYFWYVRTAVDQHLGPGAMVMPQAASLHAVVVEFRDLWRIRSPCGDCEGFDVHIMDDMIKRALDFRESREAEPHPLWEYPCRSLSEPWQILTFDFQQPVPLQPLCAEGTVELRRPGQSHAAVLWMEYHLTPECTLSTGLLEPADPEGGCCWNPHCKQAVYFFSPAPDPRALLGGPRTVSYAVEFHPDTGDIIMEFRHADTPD
Assay: SPR kinetics (Biacore T200); also radiometric SPA IC50 […]
Format: binding
Design: Bio-PRMT7 (amino acids 1–692)
property: Kd (nM)
Please respond with the number in nM and leave the unit unwritten.

Req: Return reported Kd; argument: Nc1ncnc2c1ncn2[C@@H]1O[C@H](CSCCCCNCc2cccc(-c3ccc(Cl)cc3)c2)[C@@H](O)[C@H]1O [SGC8158]
Resp: 6.4

* * *

Molecular target: PRMT6 (Homo sapiens, UniProt Q96LA8)
Sequence (Q96LA8 whole entry): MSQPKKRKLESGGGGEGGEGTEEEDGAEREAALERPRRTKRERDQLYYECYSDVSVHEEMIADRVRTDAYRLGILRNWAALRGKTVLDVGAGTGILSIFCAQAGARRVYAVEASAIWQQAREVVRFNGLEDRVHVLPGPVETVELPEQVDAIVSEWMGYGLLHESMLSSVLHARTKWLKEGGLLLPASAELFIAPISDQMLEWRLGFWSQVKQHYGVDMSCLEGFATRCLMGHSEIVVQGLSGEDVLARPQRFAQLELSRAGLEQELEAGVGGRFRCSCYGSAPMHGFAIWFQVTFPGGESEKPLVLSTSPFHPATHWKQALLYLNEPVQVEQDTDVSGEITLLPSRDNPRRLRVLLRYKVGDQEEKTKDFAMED
Assay: biochemical
Parameters: radiometric methyltransferase assay with tritiated SAM, IC50
property: IC50 (µM)
Expressed in µM, but write only the number.

Req: What does the record list as IC50 for Nc1ncnc2c1ncn2[C@@H]1O[C@H](CSCCCCNCc2cccc(-c3ccc(Cl)cc3)c2)[C@@H](O)[C@H]1O ?
Resp: 15

* * *

Target: PRMT7 (Homo sapiens)
Experiment: radiometric SPA methyltransferase assay (negative control compound, weak)
Format: biochemical
property: IC50 (µM)
Respond numerically; units are µM and should not be typed.

Req: Look up IC50: CC1(C)O[C@@H]2[C@H](O1)[C@@H](CSCCCCNCc1cccc(-c3ccc(Cl)cc3)c1)O[C@H]2n1cnc2c(N)ncnc21 [SGC8158N]
Resp: 14

* * *

Target: PRMT7 (Homo sapiens, UniProt Q9NVM4)
Assay: radiometric SPA methyltransferase assay, 3H-SAM and H2B ([…])
Assay type: biochemical
property: pIC50
# pIC50 is unitless: minus log10 of the molar concentration; print number only

Req: # input molecule: NCCCSC[C@H]1O[C@@H](n2cnc3c(N)ncnc32)[C@H](O)[C@@H]1O ; wanted: its pIC50
Resp: 6.00
